- Tested on: Canis familiaris
- ASSAY: Tested in anesthetized dog for its inotropic activity after intravenous administration
- Type: functional
- RUN_CONDITIONS: Canis lupus familiaris
Assign labels as follows, please: 1.0 for ED50 below 0.03 mg/kg; 0.0 for ED50 equal to or exceeding 0.03 mg/kg.

# MOLECULE, DISCRETE_LABEL
records = [
    ("COc1cc(S(C)(=O)=O)ccc1-c1cn2ccncc2n1", 1.0),
    ("COc1cc(SC)ccc1-c1cn2ccncc2n1", 0.0),
    ("COc1ccc(-c2nc3cc[nH]cc-3n2)c(OC)c1", 0.0),
    ("COc1ccc(-c2cn3ccncc3n2)c(OC)c1", 0.0),
    ("COc1cc(S(C)(=O)=O)ccc1-c1nc2ccncc2[nH]1", 1.0),
    ("COc1cc([S+](C)[O-])ccc1-c1cn2ccncc2n1 (stereo not drawn)", 0.0),
    ("COc1cc(SC)ccc1-c1nc2cc[nH]cc-2n1", 0.0),
]

These measurements were taken from ChEMBL document CHEMBL1124181.
